Several publications report IC50 on TBK1 (Homo sapiens, UniProt Q9UHD2); those values are gathered here.
Sequence (Q9UHD2 whole entry): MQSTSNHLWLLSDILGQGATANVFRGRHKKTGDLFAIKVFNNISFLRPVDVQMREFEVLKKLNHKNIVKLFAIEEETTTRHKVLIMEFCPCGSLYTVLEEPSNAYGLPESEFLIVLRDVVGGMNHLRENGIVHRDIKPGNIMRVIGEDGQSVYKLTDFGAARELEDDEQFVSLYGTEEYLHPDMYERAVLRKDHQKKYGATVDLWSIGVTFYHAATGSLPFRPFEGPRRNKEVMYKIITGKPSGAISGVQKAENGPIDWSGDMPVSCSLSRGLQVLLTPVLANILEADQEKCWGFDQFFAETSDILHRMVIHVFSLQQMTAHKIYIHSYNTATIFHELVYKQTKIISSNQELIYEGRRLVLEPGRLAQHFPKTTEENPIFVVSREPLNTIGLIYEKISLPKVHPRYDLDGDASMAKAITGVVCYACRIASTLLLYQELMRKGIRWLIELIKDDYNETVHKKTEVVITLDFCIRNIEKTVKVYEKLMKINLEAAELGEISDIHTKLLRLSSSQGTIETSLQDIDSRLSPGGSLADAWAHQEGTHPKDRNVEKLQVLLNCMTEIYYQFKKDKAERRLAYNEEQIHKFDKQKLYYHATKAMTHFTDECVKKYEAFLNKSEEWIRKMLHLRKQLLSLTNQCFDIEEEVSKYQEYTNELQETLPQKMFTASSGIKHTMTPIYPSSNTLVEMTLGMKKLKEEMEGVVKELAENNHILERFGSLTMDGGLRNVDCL
Write the answer as a number in nM, unit excluded.

Record excerpt, results attached:
[Q] Tell me its IC50 on TBK1 (Homo sapiens, UniProt Q9UHD2): `N#Cc1cc(-c2ccnc(Nc3cc(C(=O)O)ccn3)c2)ccc1OC1CCOCC1`
[A] 170

[Q] Tell me its IC50 on TBK1 (Homo sapiens, UniProt Q9UHD2): `O=C(OC1CCCC1)N1CC=C(c2c[nH]c3ncc(-c4ccc(CN5CCOCC5)s4)cc23)CC1`
[A] 160

[Q] Tell me its IC50 on TBK1 (Homo sapiens, UniProt Q9UHD2): `Nc1ncc(-c2c[nH]c3ccccc23)cc1C(=O)Nc1ccncc1`
[A] 510

[Q] Tell me its IC50 on TBK1 (Homo sapiens, UniProt Q9UHD2): `CC(C)NC(=O)N1CC=C(c2c[nH]c3ncc(-c4ccc(C(=O)N5CCN(C)CC5)cc4)cc23)CC1`
[A] 7

More entries:
[Q] Tell me its IC50 on TBK1 (Homo sapiens, UniProt Q9UHD2): `CN(C)Cc1ccnc(Nc2cc(-c3ccc(OC4CCOCC4)c(C#N)c3)ccn2)c1`
[A] 14

[Q] Tell me its IC50 on TBK1 (Homo sapiens, UniProt Q9UHD2): CC1C=C(c2c[nH]c3ncc(-c4ccc(CN5CCN(C)CC5)s4)cc23)CCN1C(=O)NC1CCC1 (centres unmarked)
[A] 5.6

* * *

Several publications report IC50 on TBK1 (Homo sapiens); those values are gathered here.

[Q] Return IC50 (reported value) for this compound: `COc1nc(Nc2cc(-c3ccc(OC4CCN(C(=O)CO)CC4)c(C#N)c3)ncn2)ccc1C(=O)N(C)C`
[A] < 100 nM

More entries:
[Q] Return IC50 (reported value) for this compound: `CN1CCN(c2ccc(Nc3cc(-c4ccc(OC5CCOCC5)c(C#N)c4)ncn3)nc2)CC1`
[A] < 100 nM

[Q] Return IC50 (reported value) for this compound: `CC(C)(C)OC(=O)N1CC=C(c2c[nH]c3ncc(-c4ccc(C(=O)N5CCOCC5)cc4)cc23)CC1`
[A] 39 nM

[Q] Return IC50 (reported value) for this compound: `CCn1cc(Nc2ncc3ccn(CCCNC(=O)C4CCC4)c3n2)cn1`
[A] < 100 nM

* * *

Several publications report IC50 on TBK1 (Homo sapiens); those values are gathered here.
Write the answer as a number in µM, unit excluded.

Record excerpt, results attached:
[Q] Return IC50 (reported value) for this molecule: `NS(=O)(=O)c1cccc(-c2cnc3[nH]cc(C4=CCN(C(=O)c5cccs5)CC4)c3c2)c1`
[A] 0.015

[Q] Return IC50 (reported value) for this molecule: CC1CN(C(=O)NC2CCCC2)CC=C1c1c[nH]c2ncc(-c3ccc(S(C)(=O)=O)cc3)cc12 (stereo not drawn)
[A] 0.097

[Q] Return IC50 (reported value) for this molecule: `COc1ccc(-c2cnc3[nH]cc(C4=CCN(C(=O)OC5CCCC5)CC4)c3c2)cc1S(=O)(=O)N1CCOCC1`
[A] 0.18

[Q] Return IC50 (reported value) for this molecule: `COCCn1cc(-c2cnc(N)c(C(=O)Nc3ccnc(C)c3)c2)cn1`
[A] 1.2

More entries:
[Q] Return IC50 (reported value) for this molecule: `COc1ccc(-c2cnc3[nH]cc(C4=CCN(C(=O)OC(C)(C)C)CC4)c3n2)cc1OC`
[A] 0.32

[Q] Return IC50 (reported value) for this molecule: `COc1cccc(Nc2cc(-c3ccc(N)c4c3CNC4=O)ncn2)c1`
[A] 0.19
